Give IC50 for every item shown.
ASSAYED_TARGET: Chk-1 kinase (Homo sapiens (Human), UniProt O14757)
Sequence (O14757 whole entry): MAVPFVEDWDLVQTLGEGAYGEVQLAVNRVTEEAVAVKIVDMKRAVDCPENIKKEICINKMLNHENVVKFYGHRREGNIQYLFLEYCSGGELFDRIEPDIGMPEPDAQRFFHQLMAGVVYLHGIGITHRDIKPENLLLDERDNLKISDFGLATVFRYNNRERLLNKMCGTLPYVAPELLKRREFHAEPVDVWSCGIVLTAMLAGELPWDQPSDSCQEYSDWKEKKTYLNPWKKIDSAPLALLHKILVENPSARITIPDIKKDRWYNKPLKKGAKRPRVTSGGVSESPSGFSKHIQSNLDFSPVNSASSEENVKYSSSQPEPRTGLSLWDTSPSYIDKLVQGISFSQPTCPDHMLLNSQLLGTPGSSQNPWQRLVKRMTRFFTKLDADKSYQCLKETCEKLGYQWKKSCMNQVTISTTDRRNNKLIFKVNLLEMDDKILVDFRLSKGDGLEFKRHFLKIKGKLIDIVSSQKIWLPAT
ASSAY_PROCEDURE: Chk-1 kinase inhibiting activity (33P-ATP filter assay, CHKtide substrate)
Assay type: biochemical
RUN_CONDITIONS: comparative tests, Example 70; read-out: Chk-1 IC50
Counter-ions that a name gives are not always drawn.
Answer with a number only, understood to be in nM.

Q: Which IC50 reading was recorded for the compound COc1cc(CCNCc2cccc(F)c2)c(Cl)cc1NC(=O)Nc1cnc(C#N)cn1 [Example 19, hydrochloride] ?
A: 8

Q: Which IC50 reading was recorded for the compound COc1cc(CCNCc2ccccc2)ccc1NC(=O)Nc1cnc(C)cn1 [Example 32, hydrochloride] ?
A: 27

Q: Which IC50 reading was recorded for the compound N#Cc1cnc(NC(=O)Nc2ccc(CCNCc3ccccc3)cc2)cn1 ?
A: 99

Q: Which IC50 reading was recorded for the compound COc1cc(CNCc2ccccc2)ccc1NC(=O)Nc1cnc(C)cn1 [Compound 338, reference compound] ?
A: 99
